Reference source for all entries: ChEMBL document CHEMBL1201862

# Test system: MDA-MB-435
# ASSAY_REMARKS: NCI tumour cell line growth inhibition, 48 h
Active and inactive are the calls of the source. Rule as the data show it: active = GI50 up to about 1.1 µM and inactive = higher.
Possible outcomes: active, inactive

COMPOUND | CLASS
O=C1OCCC[C@H]2O[C@@H](COCc3ccccc3)C[C@@H]12 | inactive
CN(COC(=O)c1ccccc1)c1nc(N(C)COC(=O)c2ccccc2)nc(N(C)COC(=O)c2ccccc2)n1 | inactive
c1cncc(CNCc2cccnc2)c1 | inactive
C=C(C)[C@H]1Cc2c(ccc3c2O[C@@H]2COc4cc(OC)c(OC)cc4[C@@H]2C3=O)O1 | active
COC(=O)c1ccc(C)cc1CC1Cc2cccc(C)c2C1=O (stereo not drawn) | inactive
O=C(/C=C1\C[C@H]2C=Nc3ccccc3C(=O)N2C1)NCCCNC(=O)/C=C1\C[C@H]2C=Nc3ccccc3C(=O)N2C1 | inactive
Cc1cc(C)c(S(=O)(=O)N2CCCN(S(=O)(=O)c3c(C)cc(C)cc3C)OCCCON(S(=O)(=O)c3c(C)cc(C)cc3C)CCCN(S(=O)(=O)c3c(C)cc(C)cc3C)OCCCO2)c(C)c1 | inactive
COc1cc2c(c(OC)c1OC)C(=O)[C@H](O)[C@H]2NC(N)=O | inactive

----------
Reported GI50 values for the following compounds.
# System: UACC-62
# ASSAY_REMARKS: NCI tumour cell line growth inhibition, 48 h
Activity calls are given as the source filed them. No stated cut-off is given here; in the data, active = GI50 up to about 1.1 µM and inactive = higher.

COMPOUND | GI50
O=C1CSC(c2cccc([N+](=O)[O-])c2)N1c1ccc(-c2ccc(-n3c(-c4ccccc4)nc4ccccc4c3=O)cc2)cc1 (stereo not drawn) | 28.8 µM (inactive)
COc1ccc(/C(C)=C2\CCCN(Cc3ccccc3)C2)cc1 | 19.8 µM (inactive)
Cc1ccc(S(=O)(=O)N/N=C2\CC3C4C=CC3C2C4)cc1 (stereo not drawn) | > 100 µM (inactive)
COC(=O)[C@]1(C)CCC[C@]2(C)[C@H]3CC[C@]4(C(C)C)OO[C@@H](O4)[C@]34O[C@@H]4C[C@H]21 | 5.3 µM (inactive)
Cc1cc(C)c(C(=O)/C(=C/c2ccccc2)c2ccccc2)c(C)c1 | > 100 µM (inactive)
Cn1c(COC(=O)Nc2ccccc2)c(COC(=O)Nc2ccccc2)c2ccc3cc(Cl)c(Cl)cc3c21 | 6.24 µM (inactive)
O=C(CSc1nc2ccc(Cl)cc2c(=O)n1-c1ccccc1)N/N=C1\C(=O)Nc2ccc(F)cc21 | 2.39 µM (inactive)
O=C(Nc1c(O)[nH]c(=S)[nH]c1=O)c1ccccc1F | > 100 µM (inactive)
COC1C=COC2(C)Oc3c(C)c(O)c4c(c3C2=O)/C(=N/C2CCC(O)OC2C)C=C(NC(=O)/C(C)=C\C(=O)C2CC2C(O)C(C)C(O)C(C)C(OC(C)=O)C1C)C4=O (stereo not drawn) | 2.01 µM (inactive)
COC(=O)C1CCC(=O)N1CN(C(C)=O)c1cc(OC)ccc1OC (stereo not drawn) | > 100 µM (inactive)
C/C(=N\O)C(CN1CCCCC1)C(c1ccccc1)c1c(O)c2ccccc2oc1=O (stereo not drawn) | > 100 µM (inactive)
CCCCCCCCCCCCCCCC(=O)OCC(COP(=O)(O)OCCNC(=O)CCSSc1ccccn1)OC(=O)CCCCCCCCCCCCCCC (stereo not drawn) | > 100 µM (inactive)
CC1(C)OC(=O)C(=Cc2ccc(O)cc2)C(=O)O1 | > 100 µM (inactive)
COC(=O)C[C@H]1CCC2(OCCO2)[C@]1(C)C(=O)OC | > 100 µM (inactive)
O=c1[nH]cnc2c1ncn2C1SC(CO)C(O)C1O (stereo not drawn) | > 100 µM (inactive)
CC(C)S(=O)(=O)ON1C(=O)c2ccc([N+](=O)[O-])cc2C1=O | > 100 µM (inactive)
CCCCCCCSCC1C(=O)C23C(O)C1CCC2C12COC3(O)C(O)C1C(C)(C)CCC2O (stereo not drawn) | 11.5 µM (inactive)
CCOC(=O)c1sc2c(c1OC(=O)c1cc(OC)c(OC)c(OC)c1)c(=O)n(-c1ccccc1)c(=S)n2-c1ccccc1 | 51.8 µM (inactive)
